target: panel of 442 kinases (Homo sapiens, UniProt Q92918); construct: purchased Ambit Biosciences (scanMAXX KINOMEscan); experiment: biochemical; assay type: binding; conditions: kinase HPK1; 1 µM; read-out: % of control at 1 µM
Sequence (Q92918 whole entry): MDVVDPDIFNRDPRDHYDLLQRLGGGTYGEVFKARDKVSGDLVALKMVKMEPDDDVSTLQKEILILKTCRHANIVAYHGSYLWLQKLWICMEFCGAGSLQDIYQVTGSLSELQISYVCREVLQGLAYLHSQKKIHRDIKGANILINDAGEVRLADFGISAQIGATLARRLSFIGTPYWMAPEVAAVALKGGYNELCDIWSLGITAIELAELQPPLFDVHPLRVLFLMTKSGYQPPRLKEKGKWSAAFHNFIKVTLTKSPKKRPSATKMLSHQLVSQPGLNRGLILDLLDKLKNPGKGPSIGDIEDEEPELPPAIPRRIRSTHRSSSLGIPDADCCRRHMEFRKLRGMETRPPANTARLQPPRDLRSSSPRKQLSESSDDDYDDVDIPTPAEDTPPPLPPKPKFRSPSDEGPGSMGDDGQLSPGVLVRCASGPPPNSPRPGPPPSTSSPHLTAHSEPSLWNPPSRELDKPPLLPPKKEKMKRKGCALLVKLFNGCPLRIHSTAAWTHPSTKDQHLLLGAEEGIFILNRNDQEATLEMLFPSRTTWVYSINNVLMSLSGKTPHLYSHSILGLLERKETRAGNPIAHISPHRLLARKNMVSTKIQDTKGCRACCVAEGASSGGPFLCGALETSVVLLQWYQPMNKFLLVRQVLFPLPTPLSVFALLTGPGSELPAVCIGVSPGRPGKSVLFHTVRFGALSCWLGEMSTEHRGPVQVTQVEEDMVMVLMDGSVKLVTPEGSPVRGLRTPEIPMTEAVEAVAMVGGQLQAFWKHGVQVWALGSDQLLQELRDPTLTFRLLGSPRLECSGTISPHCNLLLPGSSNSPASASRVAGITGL
quantity: remaining activity at 1 µM (%)
Your answer should be a plain number; it is taken to be in %.

compound	assayed.system	measurement.unit	remaining activity at 1 µM
FC(F)c1nc2ccccc2n1-c1nc(N2CCOCC2)nc(N2CCOCC2)n1 [ZSTK474]	panel of 442 kinases (Homo sapiens, UniProt Q92918)	%	93
Cn1c(=O)n(-c2ccc(C(C)(C)C#N)cc2)c2c3cc(-c4cnc5ccccc5c4)ccc3ncc21 [Dactolisib]	panel of 442 kinases (Homo sapiens, UniProt Q92918)	%	64
COc1ncc(-c2ccc3nccc(-c4ccnnc4)c3c2)cc1NS(=O)(=O)c1ccc(F)cc1F [Omipalisib]	panel of 442 kinases (Homo sapiens, UniProt Q92918)	%	100

Shift focus to the following entry.
### Prompt Lookup: remaining activity at 1 µM / panel of 442 kinases (Homo sapiens, UniProt Q92918) / Nc1cc(C(F)(F)F)c(-c2cc(N3CCOCC3)nc(N3CCOCC3)n2)cn1 [Buparlisib]
### Response 92

----------
target: panel of 442 kinases (Homo sapiens); construct: purchased Ambit Biosciences (scanMAXX KINOMEscan); assay: biochemical; type: binding; conditions: AURKC; 1 µM; read-out: % of control at 1 µM
Property: remaining activity at 1 µM; scope: individual molecules
Your answer should be a plain number; it is taken to be in %.

Take a look at these entries with their results.
structure.string	quantity	val
Cn1c(=O)n(-c2ccc(C(C)(C)C#N)cc2)c2c3cc(-c4cnc5ccccc5c4)ccc3ncc21	remaining activity at 1 µM	87
FC(F)c1nc2ccccc2n1-c1nc(N2CCOCC2)nc(N2CCOCC2)n1	remaining activity at 1 µM	96
Nc1cc(C(F)(F)F)c(-c2cc(N3CCOCC3)nc(N3CCOCC3)n2)cn1	remaining activity at 1 µM	100

Shift focus to the following entry.
### Prompt Look up remaining activity at 1 µM: COc1ncc(-c2ccc3nccc(-c4ccnnc4)c3c2)cc1NS(=O)(=O)c1ccc(F)cc1F
### Response 100

----------
target: panel of 442 kinases (Homo sapiens, UniProt P29597); construct: purchased Ambit Biosciences (scanMAXX KINOMEscan); assay: biochemical; assay type: binding; details: kinase TYK2(JH1domain-catalytic); 1 µM; read-out: TYK2(JH1domain-catalytic) (% of control at 1 µM)
Sequence (P29597 whole entry): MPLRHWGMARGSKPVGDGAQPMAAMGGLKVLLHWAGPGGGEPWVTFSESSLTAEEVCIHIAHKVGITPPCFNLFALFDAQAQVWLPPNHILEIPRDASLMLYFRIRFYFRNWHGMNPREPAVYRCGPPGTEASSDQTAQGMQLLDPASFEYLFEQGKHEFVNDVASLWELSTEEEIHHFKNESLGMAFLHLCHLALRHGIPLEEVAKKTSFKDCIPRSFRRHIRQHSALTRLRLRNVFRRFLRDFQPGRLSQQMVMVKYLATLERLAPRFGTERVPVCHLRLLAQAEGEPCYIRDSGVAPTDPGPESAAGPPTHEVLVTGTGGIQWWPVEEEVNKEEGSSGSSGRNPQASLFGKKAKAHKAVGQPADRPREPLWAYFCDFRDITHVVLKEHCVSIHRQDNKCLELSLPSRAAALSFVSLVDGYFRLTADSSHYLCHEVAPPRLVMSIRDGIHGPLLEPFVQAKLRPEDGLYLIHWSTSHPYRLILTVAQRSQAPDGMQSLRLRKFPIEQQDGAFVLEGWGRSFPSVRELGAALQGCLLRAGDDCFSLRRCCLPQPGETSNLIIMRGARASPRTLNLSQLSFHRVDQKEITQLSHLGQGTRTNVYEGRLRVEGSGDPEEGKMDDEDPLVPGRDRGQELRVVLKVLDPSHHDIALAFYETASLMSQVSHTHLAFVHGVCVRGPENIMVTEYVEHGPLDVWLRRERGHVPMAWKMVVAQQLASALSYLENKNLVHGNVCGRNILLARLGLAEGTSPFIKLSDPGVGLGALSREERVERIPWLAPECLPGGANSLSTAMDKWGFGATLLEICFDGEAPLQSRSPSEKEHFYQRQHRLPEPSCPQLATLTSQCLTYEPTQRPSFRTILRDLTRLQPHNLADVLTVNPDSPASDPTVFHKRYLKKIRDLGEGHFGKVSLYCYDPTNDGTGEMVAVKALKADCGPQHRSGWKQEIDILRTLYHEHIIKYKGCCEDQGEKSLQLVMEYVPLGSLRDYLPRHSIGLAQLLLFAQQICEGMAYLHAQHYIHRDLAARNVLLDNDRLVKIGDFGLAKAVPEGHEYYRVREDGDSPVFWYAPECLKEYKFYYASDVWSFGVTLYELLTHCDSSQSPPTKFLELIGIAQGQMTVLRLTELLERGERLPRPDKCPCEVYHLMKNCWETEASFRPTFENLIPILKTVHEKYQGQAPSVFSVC
quantity: remaining activity at 1 µM (%)
Your answer should be a plain number; it is taken to be in %.

structure.string	assayed.system	remaining activity at 1 µM / %
FC(F)c1nc2ccccc2n1-c1nc(N2CCOCC2)nc(N2CCOCC2)n1	panel of 442 kinases (Homo sapiens, UniProt P29597)	93
Cn1c(=O)n(-c2ccc(C(C)(C)C#N)cc2)c2c3cc(-c4cnc5ccccc5c4)ccc3ncc21	panel of 442 kinases (Homo sapiens, UniProt P29597)	26
COc1ncc(-c2ccc3nccc(-c4ccnnc4)c3c2)cc1NS(=O)(=O)c1ccc(F)cc1F	panel of 442 kinases (Homo sapiens, UniProt P29597)	100

Shift focus to the following entry.
### Prompt Look up remaining activity at 1 µM: Nc1cc(C(F)(F)F)c(-c2cc(N3CCOCC3)nc(N3CCOCC3)n2)cn1
### Response 100

From: paper PMC5564600
